Where do these numbers come from? They come from patent US11285130B2.

- ASSAY_PROCEDURE: SAD study pharmacokinetic analysis
- Format: in vivo, human
- SETTINGS: male, human, plasma, oral, 100 mg, SAD, KH176 100 mg, fed; read-out: AUClast (Geomean)
MEASURED_METRIC: AUC(0-t) (ng·h/mL)
// return numeric value only (unit: ng·h/mL, not printed)

Quick check: AUC(0-t) of Cc1c(C)c2c(c(C)c1O)CC[C@@](C)(C(=O)N[C@@H]1CCCNC1)O2.Cl [KH176] ?
1650

----------
- ASSAY_PROCEDURE: MAD study pharmacokinetic analysis
- Assay type: in vivo, human
- SETTINGS: male, human, plasma, oral, 100 mg, MAD, KH176 100 mg b.i.d, Day 1; read-out: AUCtau (Geomean)
MEASURED_METRIC: AUC (ng·h/mL)
// return numeric value only (unit: ng·h/mL, not printed)

Quick check: AUC of `Cc1c(C)c2c(c(C)c1O)CC[C@@](C)(C(=O)N[C@@H]1CCCNC1)O2.Cl` ?
1090
